Field: selectivity ratio at 72 h. Provide a value for each of the compounds that follow.
- Assay text: MTT cytotoxicity assay, MDA-MB-231
- Assay type: cell-based, human
- Condition description: human; CC50 of WI-38 divided by CC50 of MDA-MB-231; read-out: SCI (selective cytotoxicity index)
Answers are plain numbers.

[[record]]
compound = "CC1COc2c(ccc(F)c2F)N1C(=O)CCCCCCCNc1ncnc2[nH]cnc12 (stereo not shown)"
recorded_measurement = 1.2

[[record]]
compound = "CC1COc2c(ccc(F)c2F)N1C(=O)CCCCCCCCCCCNc1ncnc2[nH]cnc12 (stereo not shown)"
recorded_measurement = 5.9

[[record]]
compound = "CC1COc2c(ccc(F)c2F)N1C(=O)CCCCCCCCCCNc1ncnc2[nH]cnc12 (stereo not shown)"
recorded_measurement = 0.48


For the next question, use this compound.
Enquiry: selectivity ratio at 72 h for CC1COc2c(ccc(F)c2F)N1C(=O)CCCCCCCCCCCCCCNc1ncnc2[nH]cnc12 (stereo not shown) ?
Return: 1.4

src = paper PMC9962735
